- Test system: K. pneumoniae MP-648
- Assay Comment: MIC determination by CLSI broth dilution, K. pneumoniae MP-648
- Assay type: cell-based
- Settings: Klebsiella pneumoniae, MP648, CLSI broth dilution; strain MP-648
As shown below, each of these compounds has a reported MIC value.
Recorded Metric: MIC

| Compound | Recorded Metric | Reported Value |
| --- | --- | --- |
| CO[C@]1(C)C[C@@H](C)CN(C)[C@@H](CCCN2CCCC2)COC(=O)C(C)(C)C(=O)[C@H](C)[C@H]1O[C@@H]1O[C@H](C)C[C@H](N(C)C)[C@H]1O [Compound 107] | MIC | < 4 µg/mL |
| CCN1C[C@H](C)C[C@@](C)(OC)[C@H](O[C@@H]2O[C@H](C)C[C@H](N(C)C)[C@H]2O)[C@@H](C)C(=O)C(C)(C)C(=O)OC[C@H]1[C@H](O)CCO [Compound 200] | MIC | > 32 µg/mL |
| CCN1C[C@H](C)C[C@@](C)(OC)[C@H](O[C@@H]2O[C@H](C)C[C@H](N(C)C)[C@H]2O)[C@@H](C)C(=O)C(C)(C)C(=O)OC[C@H]1CCCN1CCCC1 [Compound 113] | MIC | < 4 µg/mL |

###

- Tested on: E. coli MP-4
- Assay Comment: MIC determination by CLSI broth dilution, E. coli MP-4
- Type: cell-based
- Settings: Escherichia coli, MP4, CLSI broth dilution; strain MP-4
As shown below, each of these compounds has a reported MIC value.
Recorded Metric: MIC

| Compound | Reported Value |
| --- | --- |
| CO[C@]1(C)C[C@@H](C)CN(C)[C@@H](CC2CCN(C(C)C)CC2)COC(=O)C(C)(C)C(=O)[C@H](C)[C@H]1O[C@@H]1O[C@H](C)C[C@H](N(C)C)[C@H]1O [Compound 68] | 4 to 32 µg/mL |
| CO[C@]1(C)C[C@@H](C)CN(C)[C@@H](CN2CCN(C(=O)C(C)(C)C)CC2)[C@H](C)OC(=O)C(C)(C)C(=O)[C@H](C)[C@H]1O[C@@H]1O[C@H](C)C[C@H](N(C)C)[C@H]1O [Compound 114] | > 32 µg/mL |
| CO[C@]1(C)C[C@@H](C)CN(CC(C)C)[C@@H](CCCN(C)C(C)C)COC(=O)C(C)(C)C(=O)[C@H](C)[C@H]1O[C@@H]1O[C@H](C)C[C@H](N(C)C)[C@H]1O [Compound 8] | < 4 µg/mL |
| CO[C@]1(C)C[C@@H](C)CN[C@@H](Cc2ccccc2)COC(=O)[C@H](C)C(=O)[C@H](C)[C@H]1O[C@@H]1OC(C)CC(N(C)C)C1O (some centres unmarked) [Compound 208] | > 32 µg/mL |
| CO[C@]1(C)C[C@@H](C)CN(C)[C@@H](CCCN2CCNC(=O)C2)COC(=O)C(C)(C)C(=O)[C@H](C)[C@H]1O[C@@H]1O[C@H](C)C[C@H](N(C)C)[C@H]1O [Compound 115] | > 32 µg/mL |

###

- Test system: K. pneumoniae MP-546
- Assay Comment: MIC determination by CLSI broth dilution, K. pneumoniae MP-546
- Type: cell-based
- Settings: Klebsiella pneumoniae, MP546, CLSI broth dilution; strain MP-546
As shown below, each of these molecules has a reported MIC value.

| Smiles Str | MIC |
| --- | --- |
| CO[C@]1(C)C[C@@H](C)CN(C)[C@@H](CCCN2CCC[C@@H]2C(F)(F)F)COC(=O)C(C)(C)C(=O)[C@H](C)[C@H]1O[C@@H]1O[C@H](C)C[C@H](N(C)C)[C@H]1O | > 32 µg/mL |
| CCCN1C[C@H](C)C[C@@](C)(OC)[C@H](O[C@@H]2O[C@H](C)C[C@H](N(C)C)[C@H]2O)[C@@H](C)C(=O)C(C)(C)C(=O)OC[C@H]1CCCN(C)C | < 4 µg/mL |
| CO[C@]1(C)C[C@@H](C)CN(C)[C@H](CCC2CCN(CC(C)C)CC2)COC(=O)C(C)(C)C(=O)[C@H](C)[C@H]1O[C@@H]1O[C@H](C)C[C@H](N(C)C)[C@H]1O | 4 to 32 µg/mL |

src = patent US12552825B2
